The reported measurements were obtained from PubChem BioAssay (NCATS).

# test.description: qHTS profiling for inhibitors of Plasmodium falciparum proliferation (AID 504749); also: potency is read from the fitted curve at half-maximal effect; nearly all actives have a fitted effect of over 60% in size
# measurement.context: P. falciparum in erythrocytes, SYBR Green DNA, 72 h; parasite line A
Inconclusive results are not listed. The source made the active and inactive calls. Calls follow the shape of the dose curve; as a rule, active = well fitted inhibition curve with a large enough effect; inconclusive = small, poorly fitted or top-dose-only effect; inactive = flat fitted curve, though single readings scatter.

compound: CC(=O)O[C@@]12CO[C@@H]1C[C@H](O)[C@@]1(C)C(=O)[C@H](O)C3=C(C)[C@@H](OC(=O)C(O)[C@@H](NC(=O)OC(C)(C)C)c4ccccc4)C[C@@](O)([C@@H](OC(=O)c4ccccc4)[C@H]21)C3(C)C (some centres undefined)
Potency: 0.0316 µM (active)

compound: CCN1/C(=C/C=C/C=C/c2sc3ccccc3[n+]2CC)Sc2ccccc21
Potency: 2.82 µM (active)

compound: CO[C@@H]1[C@@H](OC2OC(C)C(OC3CC(C)(O)C(OC(=O)CC(C)C)C(C)O3)C(N(C)C)C2O)[C@@H](CC=O)C[C@@H](C)C(=O)/C=C\C2O[C@H]2C[C@@H](C)OC(=O)C[C@H]1OC(C)=O (some centres undefined)
Potency: 11.2 µM (active)

compound: C=C[C@]1(C)C[C@@H](OC(=O)CSCCN(CC)CC)[C@]2(C)C(C)CC[C@]3(CCC(=O)[C@H]32)[C@@H](C)[C@@H]1O (some centres undefined)
Potency: 10 µM (active)

---

# assay.system: Rap guanine nucleotide exchange factor 3 (Homo sapiens) (UniProt O95398)
# Sequence (O95398 whole entry, looked up): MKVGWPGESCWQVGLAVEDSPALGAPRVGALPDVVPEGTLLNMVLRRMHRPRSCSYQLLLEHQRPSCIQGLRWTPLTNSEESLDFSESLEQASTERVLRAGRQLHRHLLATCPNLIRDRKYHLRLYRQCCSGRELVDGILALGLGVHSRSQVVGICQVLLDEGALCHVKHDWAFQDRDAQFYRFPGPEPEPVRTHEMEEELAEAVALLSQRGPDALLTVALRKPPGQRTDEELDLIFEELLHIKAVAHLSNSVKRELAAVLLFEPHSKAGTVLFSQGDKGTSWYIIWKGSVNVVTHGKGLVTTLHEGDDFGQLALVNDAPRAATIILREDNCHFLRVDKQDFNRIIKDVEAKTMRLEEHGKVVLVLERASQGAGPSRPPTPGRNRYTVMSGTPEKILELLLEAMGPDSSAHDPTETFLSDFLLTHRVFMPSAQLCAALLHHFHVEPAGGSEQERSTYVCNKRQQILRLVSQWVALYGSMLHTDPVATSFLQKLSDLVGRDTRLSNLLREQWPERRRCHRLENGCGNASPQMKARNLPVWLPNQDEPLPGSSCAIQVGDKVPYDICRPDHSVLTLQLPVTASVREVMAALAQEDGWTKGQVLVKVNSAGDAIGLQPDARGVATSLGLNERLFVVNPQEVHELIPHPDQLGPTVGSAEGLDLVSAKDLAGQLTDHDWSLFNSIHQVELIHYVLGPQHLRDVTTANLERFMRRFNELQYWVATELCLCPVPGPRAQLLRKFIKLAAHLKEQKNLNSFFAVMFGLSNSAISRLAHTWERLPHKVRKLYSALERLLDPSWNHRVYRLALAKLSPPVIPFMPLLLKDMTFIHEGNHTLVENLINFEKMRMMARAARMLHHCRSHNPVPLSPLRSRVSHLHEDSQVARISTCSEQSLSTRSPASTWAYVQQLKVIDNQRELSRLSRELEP
# test.description: Counterscreen qHTS for antagonist of cAMP-regulated guanine nucleotide exchange factor 3 (EPAC1) (AID 1645888);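 also: fluorescence loss as bound BODIPY-GDP is released from Rap1B; % of control where 0% means no effect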
# measurement.context: Rap1B-BODIPY-GDP nucleotide exchange, fluorescence; series mostly up to 154 µM
Inconclusive results are not listed. The source made the active and inactive calls. Calls come from the whole dose curve; as a rule, active = well fitted inhibition curve with a large enough effect; inconclusive = small, poorly fitted or top-dose-only effect; inactive = no such curve, though single readings can be large or run the other way.
property.name: activity change, negative = inhibition

molecular.string: COc1ccc(/C=C2\SC(=S)NC2=O)cc1OS(=O)(=O)c1ccc(NC(C)=O)cc1
property.name: activity change, negative = inhibition
measured.value: inactive
--
molecular.string: Cc1cc(/C=C2\SC(=S)N(Cc3ccco3)C2=O)c(C)n1-c1cccnc1
property.name: activity change, negative = inhibition
measured.value: inactive
--
molecular.string: COCCN(CCOC)Cc1cc(=O)oc2cc(C)cc(C)c12
property.name: activity change, negative = inhibition
measured.value: inactive
--
molecular.string: O=C(O)/C=C\C(=O)Nc1ccccc1C#Cc1ccc(Br)cc1
property.name: activity change, negative = inhibition
measured.value: inactive
--
molecular.string: COc1ccc2oc(C)c(C(=O)c3ccccc3)c2c1
property.name: activity change, negative = inhibition
measured.value: 1.7% [at 30.8 µM] (inactive)
--
molecular.string: CCOc1cnc(-c2c(-c3c(Cl)cccc3Cl)noc2C)o1
property.name: activity change, negative = inhibition
measured.value: -6.2% [at 30.8 µM] (inactive)

---

# test.description: Dual reporter qHTS for agonist of Pregnane X Receptor (hPXR) against the NCATS DSHEA and TCM libraries: Fluorescence readout (AID 1920058); also: 0% is about no effect
# measurement.context: PXR dual reporter cells; series mostly up to 40 µM
Active and inactive are the calls of the source. Calls come from the whole dose curve; as a rule, active = well fitted curve in the direction sought with a large enough effect; inconclusive = small, poorly fitted or top-dose-only effect, or another doubt; inactive = no such curve, though single readings can be large or run the other way.

molecular.string: CCCCCCCCC/C=C/C(=O)CCc1ccc(O)c(OC)c1
activation: inactive
--
molecular.string: CCCCCCCC/C=C\CCCCCCCCCCCCCC(=O)O
activation: inactive
--
molecular.string: CC(C)=CCC[C@](C)(O[C@@H]1O[C@H](CO)[C@@H](O)[C@H](O)[C@H]1O)[C@H]1CC[C@]2(C)[C@@H]1[C@H](O)C[C@@H]1[C@@]3(C)CC[C@H](O)C(C)(C)[C@@H]3[C@@H](O[C@@H]3O[C@H](CO)[C@@H](O)[C@H](O)[C@H]3O[C@@H]3O[C@@H](C)[C@H](O)[C@@H](O)[C@H]3O)C[C@]12C
activation: inactive
--
molecular.string: CCCCCCCCCCCCCCCCCCCCCCCCCCCCCCO
activation: 1.05% [at 5 µM] (inactive)
